Sourced from ChEMBL document CHEMBL4190186

Tested on: T98G
Experiment: Cytotoxicity against PTEN/TP53 deficient human T98G cells assessed as cell death at 20 uM after 48 hrs by MTT assay relative to control
Assay type: functional
Calls of active or inactive are those of the source. The rule behind the calls is not given here.
recorded_endpoint: Activity

>>> recorded_value("O=C1/C(=C\\c2ccc(O)cc2)c2ccccc2N1O")
"inactive"
>>> recorded_value("CN(C)c1nsc2c1C(=O)c1ccccc1C2=O")
">50 - 70%"
>>> recorded_value("O=C1Nc2ccccc2/C1=C/c1ccc(-c2ccccc2)cc1")
"Active"
>>> recorded_value("O=C1Nc2ccc(Cl)cc2/C1=C/c1ccc(-c2ccccc2)cc1")
"Active"
>>> recorded_value("NNC(=O)/C=C/c1ccc(-c2ccccc2)cc1")
"Active"
>>> recorded_value("Nc1nsc2c1C(=O)c1ccccc1C2=O")
">50 - 70%"
>>> recorded_value("Cc1[nH]c2ccccc2c1/C=C/c1ccccc1-c1ccc(/C=C/C(=O)Nc2cc(-c3ccccc3)ccc2O)cc1")
"Active"
>>> recorded_value("O=C(Nc1ccccc1)Nc1ccc(/C=C2\\C(=O)Nc3ccccc32)cc1")
"inactive"
>>> recorded_value("O=C(Nc1ccccc1)Nc1ccc(/C=C2\\C(=O)N(O)c3ccccc32)cc1")
"inactive"
>>> recorded_value("CON1C(=O)/C(=C\\c2ccc(-c3ccccc3)cc2)c2ccccc21")
"Active"
>>> recorded_value("COc1ccc(-c2ccc(/C=C/C(=O)NO)cc2)cc1")
"Active"
>>> recorded_value("O=C1/C(=C\\c2ccc(-c3ccccc3)cc2)c2ccccc2N1O")
"Active"
>>> recorded_value("O=C1c2ccccc2C(=O)c2c(-c3ccccc3)nsc21")
">50 - 70%"
>>> recorded_value("NNC(=O)N/C=C/c1ccc(-c2ccccc2)cc1")
"Active"
>>> recorded_value("Cc1[nH]c2ccccc2c1/C=C/c1ccccc1-c1ccc(/C=C/C(=O)NO)cc1")
">70%"
>>> recorded_value("O=C(/C=C/c1ccc(-c2ccccc2)cc1)NO")
"Active"

----------
Entries and their pIC50
Tested on: NCI-H460
Assay: Cytotoxicity against human NCI-H460 cells
Assay type: functional, cell-based
pIC50: −log10 of the molar value.
recorded_endpoint: pIC50

>>> recorded_value("O=C1c2ccccc2C(=O)c2c(-c3ccccc3)nsc21")
6.44
>>> recorded_value("CN(C)c1nsc2c1C(=O)c1ccccc1C2=O")
6.66
>>> recorded_value("Nc1nsc2c1C(=O)c1ccccc1C2=O")
6.55
